What Relative binding activity, % was measured for each of the following?
assayedTarget: T1, Biotin-huCGRPaSA (human, not fully specified; biotin (position not given))
T1 construct: exact construct ('aSA') not explained; also called Biotin CGRPaSA; full-length (1-37) CGRP
T1 peptide: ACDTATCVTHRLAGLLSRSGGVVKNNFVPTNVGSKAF
assayDetails: ELISA, supernatant; relative to chimeric C245
Experimental: Biotin CGRPaSA was diluted with PBS (Hyclone) to 1.0 μg/mL, and the dilution was added to a microplate at 100 μL/well. The plate was let stand in an incubator at 37° C. and coated for 90 min and then washed, and 2% BSA was added to the plate at 200 μL/well. […] Finally, a 2 M hydrochloric acid solution was added at 100 μL/well to stop the reaction while avoiding bubbles, and the plates were read on a microplate reader within 10 min (wavelength: 450/620 nm).
Please make sure the unit comes right after the number.

Indicate its recorded Relative binding activity, %; the binder in question is hu129 (antibody, V domains shown, 2B8 HC1-2/3H10 LC2-1) VH: QVQLVQSGAEVKKPGASVKVSCKASGYTFTDYNMHWVRQAPGQGLEWMGNIYPYNGGTVYNQKFNNRVTLTVDTSSSTAYMELRSLRSDDTAVYYCAREGLGGYWGQGTLVTVSS VL: DIVLTQSPDSLAVSLGERATINCKASQNIDYGGYSYMNWYQQKPGQPPKVLIYSVFNLESGVPDRFSGSGSGTDFTLTISSLQAEDVAVYYCQQSNEAPYTFGQGTKLEIK 117%

Return value of Relative binding activity, % for input hu152 (antibody, V domains shown, 3E5 HC-1/2B8 LC2-1) VH: QVQLVQSGAEVKKPGASVKVSCKTSGYTFTDYNMHWVRQAPGQRLEWMGYISPYNGGTAYNQKFKFRVTLTVDTSSSTAYMELSSLRSEDTAVYYCAREGLGGYWGQGTLVTVSS VL: DIVLTQSPDSLAVSLGERATINCQASQNIDGNTYMNWYQQKPGQPPKVLIYSIFNLESGVPDRFSGSGSGTDFTLTISSLQAEDVAVYYCQQSNDYPYTFGQGTKLEIK , no commentary. 109%

Complete the entry with Relative binding activity, % for hu143 (antibody, V domains shown, 2B8 HC1-3/3H10 LC2-2) VH: QVQLVQSGAEVKKPGASVKVSCKASGYTFTDYNMHWVRQAPGQGLEWMGNIYPYNAGTVYNQKFNNRVTLTVDTSSSTAYMELSRLRSDDTAVYYCAREGLGGYWGQGTLVTVSS VL: DIQLTQSPSSLSASVGDRVTITCKASQNIDYGGYSYMNWYQQKPGKAPKVLIYSVFNLESGVPSRFSGSGSGTDFTLTISSLQPEDFATYYCQQSNEAPYTFGQGTKLEIK 41%
